# tested.system: T1, SNTG1, Q9NSN8
# T1 sequence (Q9NSN8 52-150, limits assumed, looked up): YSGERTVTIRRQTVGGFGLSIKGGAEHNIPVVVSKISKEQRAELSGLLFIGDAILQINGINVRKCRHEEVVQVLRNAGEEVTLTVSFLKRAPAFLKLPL
# procedure.summary: holdup assay
# Design: key: below the threshold = too weak to quantify, mostly under pKd 3.1 to 4
# reported.conditions: plain residues with an end cap or a label only (N-terminal biotin on a linker: ado-ado)

| binder | pKd |
| --- | --- |
| SLNANEVEWF [RNF130, Q86XS8] | below the threshold |
| RSSGGDDFWF [KCNV1, Q6PIU1] | below the threshold |
| RFQQRMQTHV [KIRREL1, Q96J84] | below the threshold |
